target: COX-2 (Homo sapiens, UniProt P35354); experiment: Assay of the activity of purified human COX-2 (TMPD chromogenic assay); format: biochemical; parameters: made in house; host or cells: Sf9 cells; settings: Table IV; purified enzyme, TMPD oxidation; read-out: COX-2(IC50, µM) TMPD
Sequence (P35354 18-604): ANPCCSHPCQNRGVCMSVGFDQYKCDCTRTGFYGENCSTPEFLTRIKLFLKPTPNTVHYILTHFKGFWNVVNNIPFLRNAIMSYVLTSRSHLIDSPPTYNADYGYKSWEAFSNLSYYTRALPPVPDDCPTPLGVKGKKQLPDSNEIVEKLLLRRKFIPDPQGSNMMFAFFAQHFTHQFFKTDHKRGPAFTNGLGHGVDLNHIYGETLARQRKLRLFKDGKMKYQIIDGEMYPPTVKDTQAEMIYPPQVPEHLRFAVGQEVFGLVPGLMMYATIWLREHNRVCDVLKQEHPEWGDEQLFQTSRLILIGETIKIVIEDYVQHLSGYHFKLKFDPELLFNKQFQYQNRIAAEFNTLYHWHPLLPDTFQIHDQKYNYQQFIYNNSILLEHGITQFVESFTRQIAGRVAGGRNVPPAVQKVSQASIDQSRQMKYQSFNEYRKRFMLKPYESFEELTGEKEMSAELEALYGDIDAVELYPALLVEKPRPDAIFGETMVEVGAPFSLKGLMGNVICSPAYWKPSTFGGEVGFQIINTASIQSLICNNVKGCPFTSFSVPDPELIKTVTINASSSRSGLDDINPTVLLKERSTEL
measuredEndpoint: IC50 (µM)

CC[C@]1(C)OC(=O)C(OC(C)C)=C1c1ccc(S(C)(=O)=O)cc1	2.9
CC1(C)OC(=O)C(Oc2ccc3ncsc3c2)=C1c1ccc(S(C)(=O)=O)cc1	25
CC1(C)OC(=O)C(OC2Cc3ccccc3C2)=C1c1ccc(S(C)(=O)=O)cc1	2.2
CC1(C)OC(=O)C(Sc2nccs2)=C1c1ccc(S(C)(=O)=O)cc1	54
Cc1ccnc(OC2=C(c3ccc(S(C)(=O)=O)cc3)C(C)(C)OC2=O)c1	15
CC1(C)OC(=O)C(Oc2cccc(Cl)n2)=C1c1ccc(S(C)(=O)=O)cc1	3.2
CCC(CC)OC1=C(c2ccc(S(C)(=O)=O)cc2)C(C)(C)OC1=O	8.7
C[C@]1(CC(F)(F)F)OC(=O)C(Oc2ccc(F)cc2)=C1c1ccc(S(C)(=O)=O)cc1	6.5
CC[C@@]1(C)OC(=O)C(Oc2ccc(Cl)cc2)=C1c1ccc(S(C)(=O)=O)cc1	2.2
CS(=O)(=O)c1ccc(C2=C(Oc3ccc(Cl)cn3)C(=O)CC2)cc1	2.2
Cc1cc(OC2=C(c3ccc(S(C)(=O)=O)cc3)C(C)(C)OC2=O)ncc1F	4.6
C[C@]1(CC(F)(F)F)OC(=O)C(Oc2ccc(Br)cn2)=C1c1ccc(S(C)(=O)=O)cc1	14
CC[C@@]1(C)OC(=O)C(Oc2ccc(OC)cc2)=C1c1ccc(S(C)(=O)=O)cc1	5.4
CC1(C)OC(=O)C(Sc2ccc(Cl)cn2)=C1c1ccc(S(C)(=O)=O)cc1	11
CC1(C)OC(=O)C(OC2CCc3ccccc32)=C1c1ccc(S(C)(=O)=O)cc1 (stereo not shown)	9.5
CCCC1(C)OC(=O)C(Oc2ccc(F)cc2)=C1c1ccc(S(C)(=O)=O)cc1 (stereo not shown)	6.3

Data origin, for the record: patent EP0863891B1
